Experiment: Kinetics of UV 328 and its metabolites in blood after single oral exposure of volunteers
Format: in vivo, human
Details: both sexes, human, whole blood, oral, 0.3 mg/kg bw, human blood, plateau-shaped elimination curve, phase not specified; read-out: elimination half-life in blood
Procedure: Furthermore, blood samples were drawn from each volunteer 2, 4, 6, 8, 10, 24, […] 48 h after exposure. In summary, […] blood samples were collected from every volunteer. One volunteer donated two EDTA—Monovettes® (Sarstedt, Nümbrecht, Germany) for every time point. So, for every sampling time one sample was kept as whole blood while the plasma fraction was extracted for the other. In this case, the respective blood vessels were centrifuged at 800 × g for 5 min. […]
READOUT KIND: half-life

>  <MOLECULE>
CC(=O)C(C)(C)c1cc(-n2nc3ccccc3n2)c(O)c(C(C)(C)C(C)O)c1 (stereo not shown)

>  <READOUT KIND>
half-life

>  <OBSERVED RESULT>
> 25 days

$$$$

====

Assay: Kinetics of UV 328 and its metabolites in blood after single oral exposure of volunteers
Type: in vivo, human
Details: both sexes, human, whole blood, po, 0.3 mg/kg, second elimination phase, human blood, oral 0.3 mg/kg bw, n = 3; read-out: t1/2 (24–48 h) in blood (converted)
Parameter half-life: see the listing below.
READOUT KIND: half-life (h)

>  <COMPOUND>
CCC(C)(C)c1cc(C(C)(C)C(C)O)cc(-n2nc3ccccc3n2)c1O (centres unmarked)

>  <UOM>
h

>  <QUALIFIER OPERATOR>
=

>  <OBSERVED RESULT>
15.7

$$$$
>  <COMPOUND>
CC(=O)C(C)(C)c1cc(-n2nc3ccccc3n2)c(O)c(C(C)(C)C(C)O)c1 (centres unmarked)

>  <UOM>
h

>  <QUALIFIER OPERATOR>
<

>  <OBSERVED RESULT>
600

$$$$

====

Assay: clinical
Type: in vivo, human
Conditions: both sexes, human, in vivo, po, 0.3 mg/kg
Method: Furthermore, blood samples were drawn from each volunteer 2, 4, 6, 8, 10, 24, […] 48 h after exposure. In summary, […] blood samples were collected from every volunteer. One volunteer donated two EDTA—Monovettes® (Sarstedt, Nümbrecht, Germany) for every time point. So, for every sampling time one sample was kept as whole blood while the plasma fraction was extracted for the other. In this case, the respective blood vessels were centrifuged at 800 × g for 5 min. […]
READOUT KIND: concentration at 24 h (ng/mL)

>  <MOLECULE>
CCC(C)(C)c1cc(C(C)(C)C(C)=O)cc(-n2nc3ccccc3n2)c1O [UV 328-4/3-CO]

>  <OBSERVED RESULT>
0.9

$$$$
>  <MOLECULE>
CCC(C)(C)c1cc(-n2nc3ccccc3n2)c(O)c(C(C)(C)CC)c1 [UV 328]

>  <OBSERVED RESULT>
83.1

$$$$
>  <MOLECULE>
CCC(C)(C)c1cc(-n2nc3ccccc3n2)c(O)c(C(C)(C)C(C)O)c1 (stereo not drawn) [UV 328-6/3-OH]

>  <OBSERVED RESULT>
5.2

$$$$

====

Experiment: Shares of conjugated analytes in urine (analysis with and without β-glucuronidase/arylsulfatase hydrolysis)
Conditions: urine of one volunteer, with vs without hydrolysis
Parameter Conjugation ratio: see the listing below.

>  <MOLECULE>
CCC(C)(C)c1cc(C(C)(C)C(C)=O)cc(-n2nc3ccccc3n2)c1O

>  <Conjugation ratio (%)>
100

$$$$
>  <MOLECULE>
CC(=O)C(C)(C)c1cc(-n2nc3ccccc3n2)c(O)c(C(C)(C)C(C)O)c1 (stereo not shown)

>  <Conjugation ratio (%)>
100

$$$$
>  <MOLECULE>
CCC(C)(C)c1cc(-n2nc3ccccc3n2)c(O)c(C(C)(C)C(C)O)c1 (stereo not shown)

>  <Conjugation ratio (%)>
97

$$$$
>  <MOLECULE>
CCC(C)(C)c1cc(C(C)(C)C(C)O)cc(-n2nc3ccccc3n2)c1O (stereo not shown)

>  <Conjugation ratio (%)>
100

$$$$

====

Assay: clinical
Format: in vivo, human
Conditions: both sexes, human, in vivo, po, 0.3 mg/kg, t1/2 (24–48 h) in blood
READOUT KIND: half-life (h)

>  <COMPOUND>
CCC(C)(C)c1cc(-n2nc3ccccc3n2)c(O)c(C(C)(C)CC)c1

>  <OBSERVED RESULT>
16.3

$$$$
>  <COMPOUND>
CCC(C)(C)c1cc(C(C)(C)C(C)=O)cc(-n2nc3ccccc3n2)c1O

>  <OBSERVED RESULT>
16.4

$$$$
>  <COMPOUND>
CCC(C)(C)c1cc(-n2nc3ccccc3n2)c(O)c(C(C)(C)C(C)O)c1 (stereo not drawn)

>  <OBSERVED RESULT>
17.9

$$$$

====

Parameter Tmax: see the listing below.
Assay: clinical
Format: in vivo, human
Details: both sexes, human, in vivo, po, tmax in blood
READOUT KIND: Tmax (h)

>  <COMPOUND>
CCC(C)(C)c1cc(-n2nc3ccccc3n2)c(O)c(C(C)(C)C(C)O)c1 (centres unmarked) [UV 328-6/3-OH]

>  <READOUT KIND>
Tmax

>  <OBSERVED RESULT>
8

$$$$
>  <COMPOUND>
CCC(C)(C)c1cc(C(C)(C)C(C)=O)cc(-n2nc3ccccc3n2)c1O [UV 328-4/3-CO]

>  <READOUT KIND>
Tmax

>  <OBSERVED RESULT>
8

$$$$

====

Assay: clinical
Assay type: in vivo, human
Settings: both sexes, human, in vivo, po, 0.3 mg/kg

>  <COMPOUND>
CCC(C)(C)c1cc(-n2nc3ccccc3n2)c(O)c(C(C)(C)CC)c1 [UV 328]

>  <UOM>
ng/mL

>  <concentration at 48 h>
29.1

$$$$

====

Experiment: Renal elimination kinetics of UV 328 and its metabolites in urine after single oral exposure
Conditions: both, human, urine, po, 0.3 mg/kg, t½ (renal elimination half-life), human urine, monophasic, oral 0.3 mg/kg bw, n = 3

>  <COMPOUND>
CCC(C)(C)c1cc(C(C)(C)C(C)O)cc(-n2nc3ccccc3n2)c1O (centres unmarked)

>  <half-life, h>
46.4

$$$$
>  <COMPOUND>
CC(=O)C(C)(C)c1cc(-n2nc3ccccc3n2)c(O)c(C(C)(C)C(C)O)c1 (centres unmarked)

>  <half-life, h>
53.5

$$$$

====

Parameter half-life: see the listing below.
Test: clinical
Assay type: in vivo, human
Conditions: both sexes, human, in vivo, po, 0.3 mg/kg, t1/2 (0–24 h) in blood
READOUT KIND: half-life

>  <COMPOUND>
CCC(C)(C)c1cc(C(C)(C)C(C)=O)cc(-n2nc3ccccc3n2)c1O [UV 328-4/3-CO]

>  <OBSERVED RESULT>
8.3 h

$$$$
>  <COMPOUND>
CCC(C)(C)c1cc(-n2nc3ccccc3n2)c(O)c(C(C)(C)CC)c1 [UV 328]

>  <OBSERVED RESULT>
5.3 h

$$$$
>  <COMPOUND>
CCC(C)(C)c1cc(-n2nc3ccccc3n2)c(O)c(C(C)(C)C(C)O)c1 (stereo not drawn) [UV 328-6/3-OH]

>  <OBSERVED RESULT>
9 h

$$$$
